# Target Under Test: Human immunodeficiency virus type 2 integrase (Human immunodeficiency virus 2, UniProt P89582)
# Sequence (P89582 whole entry): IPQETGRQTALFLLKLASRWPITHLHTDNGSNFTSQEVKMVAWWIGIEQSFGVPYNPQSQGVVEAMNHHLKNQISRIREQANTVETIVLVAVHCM
# Experiment: Inhibition of wild type HIV-2 ROD9 integrase
Observable: pEC50
Give only the number. pEC50 is defined as minus log10 of concentration in molar units.

Exam item: So what does the record say about pEC50 for C[C@@H]1CCO[C@H]2Cn3cc(C(=O)NCc4ccc(F)cc4F)c(=O)c(O)c3C(=O)N12 ?
Marked response: 8.64

====

# Experiment: Inhibition of HIV reverse transcriptase
# Design: species or system Human immunodeficiency virus
Observable: pIC50
Give only the number. pIC50 is defined as minus log10 of concentration in molar units.

[[record]]
smiles_input = "O=C(CN(Cc1ccccc1)c1ccc(Cl)cc1)N1CCN(c2ccc([N+](=O)[O-])cc2)CC1"
numeric_value = 4.85

[[record]]
smiles_input = "O=C(CN(Cc1ccccc1)c1ccc(Cl)cc1)N1CCN(c2cccc(Cl)c2Cl)CC1"
numeric_value = 4.91

[[record]]
smiles_input = "COc1ccccc1N1CCN(C(=O)CN(Cc2ccccc2)c2ccc(Cl)cc2)CC1"
numeric_value = 4.79


Shift focus to the following entry.
Exam item: So what does the record say about pIC50 for COc1ccc(N2CCN(C(=O)CN(Cc3ccccc3)c3ccc(Cl)cc3)CC2)cc1 ?
Marked response: 4.11

====

# Tested on: Human immunodeficiency virus 2
# Experiment: Antiviral activity against HIV2 ROD
# Format: functional, organism-based
# Condition Notes: Human immunodeficiency virus 2, ROD
Observable: EC50 (µg/mL)
State the answer as a number, implicitly in µg/mL.

Worked cases, EC50 given:
[[record]]
smiles_input = "Cn1cc(C(=O)O)c(=O)c2ccc(N3CCN(c4nccs4)CC3)nc21"
endpoint_unit = "µg/mL"
numeric_value = 0.922

[[record]]
smiles_input = "Cn1cc(C(=O)O)c(=O)c2ccc(N3CCN(c4nc5ccccc5s4)CC3)nc21"
endpoint_unit = "µg/mL"
numeric_value = 0.02


Shift focus to the following entry.
Exam item: So what does the record say about EC50 for Cn1cc(C(=O)O)c(=O)c2ccc(N3CCN(c4ccccn4)CC3)nc21 ?
Marked response: 0.55

====

# Tested on: Human immunodeficiency virus 1
# Experiment: Antiviral activity against wild type HIV1 3B infected in human MT4 cells using [3H]dGTP by radio-labelled binding assay
# Type: functional, organism-based
# Condition Notes: Human immunodeficiency virus 1, 3B
Observable: pIC50
Give only the number. pIC50 is defined as minus log10 of concentration in molar units.

Worked cases, pIC50 given:
[[record]]
molecule = "Cc1cccc(N2C(=O)CSC2c2c(Cl)cccc2Cl)n1 (stereo not drawn)"
numeric_value = 7.36

[[record]]
molecule = "Cc1cccc(N2C(=O)CSC2c2c(F)cccc2Cl)n1 (stereo not drawn)"
numeric_value = 7.28


Shift focus to the following entry.
Exam item: Short answer please: pIC50, Human immunodeficiency virus 1, entry Cc1cccc(N2C(=O)CSC2c2c(F)cccc2F)n1 (stereo not drawn)
Marked response: 7.09

====

# Experiment: Inhibition of HIV-2 ROD9 integrase Q148R mutant
# Parameters: species or system Human immunodeficiency virus 2
Observable: EC50 (nM)
State the answer as a number, implicitly in nM.

Exam item: So what does the record say about EC50 for C[C@@H]1CCO[C@H]2Cn3cc(C(=O)NCc4ccc(F)cc4F)c(=O)c(O)c3C(=O)N12 [DOLUTEGRAVIR] ?
Marked response: 5.7

====

# Experiment: Selectivity index, ratio of CC50 for human TZM-bl cells to EC50 for wild type HIV1 3B infected in human TZM-bl cells
# Format: toxicity, cell-based
# Condition Notes: read-out: Selectivity Index
# if measured selectivity ratio < 2: Met  # else: Not met

[[record]]
molecule = "CC1OC(=O)c2ccccc2C1(Cl)c1ccc(C#Cc2ccccc2)cc1 (stereo not given)"
group = "Met"

[[record]]
molecule = "CCC1OC(=O)c2ccccc2C1(Cl)c1ccc(F)cc1 (stereo not given)"
group = "Not met"

[[record]]
molecule = "CCCC1OC(=O)c2ccccc2C1(Cl)c1ccc(F)cc1 (stereo not given)"
group = "Met"

[[record]]
molecule = "O=C1OC(c2ccccc2Cl)C(Cl)c2ccccc21 (stereo not given)"
group = "Not met"


Consider the additional molecule presented here.
Exam item: Hello, is selectivity ratio of the following molecule strictly smaller than 2? CC1OC(=O)c2ccccc2C1(Cl)c1ccccc1 (stereo not given)
Marked response: Not met

====

# Experiment: Inhibition of HIV-2 ROD9 integrase T97A/N155H double mutant
# Set-up: species or system Human immunodeficiency virus 2
Observable: EC50 (nM)
State the answer as a number, implicitly in nM.

Exam item: So what does the record say about EC50 for C[C@@H]1CCO[C@H]2Cn3cc(C(=O)NCc4ccc(F)cc4F)c(=O)c(O)c3C(=O)N12 ?
Marked response: 27

====

# Experiment: Inhibition of HIV-2 ROD9 integrase T97A/Y143C double mutant
# Parameters: species or system Human immunodeficiency virus 2
Observable: EC50

Exam item: So what does the record say about EC50 for C[C@@H]1CCO[C@H]2Cn3cc(C(=O)NCc4ccc(F)cc4F)c(=O)c(O)c3C(=O)N12 ?
Marked response: > 10 µM

====

# Experiment: Inhibition of HIV-2 ROD9 integrase E92Q/Y143C double mutant
# Parameters: species or system Human immunodeficiency virus 2
Observable: pEC50
Give only the number. pEC50 is defined as minus log10 of concentration in molar units.

Exam item: So what does the record say about pEC50 for C[C@@H]1CCO[C@H]2Cn3cc(C(=O)NCc4ccc(F)cc4F)c(=O)c(O)c3C(=O)N12 [DOLUTEGRAVIR] ?
Marked response: 7.82

====

# Experiment: Inhibition of HIV-2 ROD9 integrase G140S/Q148R double mutant
# Parameters: species or system Human immunodeficiency virus 2
Observable: pEC50
Give only the number. pEC50 is defined as minus log10 of concentration in molar units.

Exam item: So what does the record say about pEC50 for C[C@@H]1CCO[C@H]2Cn3cc(C(=O)NCc4ccc(F)cc4F)c(=O)c(O)c3C(=O)N12 [DOLUTEGRAVIR] ?
Marked response: 6.97

====

# Experiment: Inhibition of HIV-2 ROD9 integrase N155H mutant
# Set-up: species or system Human immunodeficiency virus 2
Observable: EC50

Exam item: So what does the record say about EC50 for C[C@@H]1CCO[C@H]2Cn3cc(C(=O)NCc4ccc(F)cc4F)c(=O)c(O)c3C(=O)N12 ?
Marked response: 5 nM

====

# Tested on: Human immunodeficiency virus 1
# Experiment: Antiviral activity against wild type HIV1 3B infected in human TZM-bl cells
# Type: functional, organism-based
# Condition Notes: Human immunodeficiency virus 1, 3B
EC50 reference
State the answer as a number, implicitly in nM.

[[record]]
compound = "COC(=O)C(N)(c1c[nH]c2ccc(F)cc12)C(F)(F)F (configuration not stated)"
observable = "EC50"
numeric_value = 45


Exam item: So what does the record say about EC50 for CCOC(=O)C(N)(c1c[nH]c2cccc(C(=O)OC)c12)C(F)(F)F (configuration not stated) ?
Marked response: 60

====

# Experiment: Inhibition of HIV-2 ROD9 integrase T97A mutant
# Parameters: species or system Human immunodeficiency virus 2
Observable: EC50 (nM)
State the answer as a number, implicitly in nM.

Exam item: So what does the record say about EC50 for C[C@@H]1CCO[C@H]2Cn3cc(C(=O)NCc4ccc(F)cc4F)c(=O)c(O)c3C(=O)N12 [DOLUTEGRAVIR] ?
Marked response: 3.2

====

pIC50 reference
# Target Under Test: Human immunodeficiency virus type 1 reverse transcriptase (Human immunodeficiency virus 1, UniProt Q72547)
Give only the number. pIC50 is defined as minus log10 of concentration in molar units.

Worked cases, pIC50 given:
[[record]]
compound = "COc1ccc2c(c1)CCCN2CCC(=O)N1CCN(c2ccccc2)CC1"
observable = "pIC50"
numeric_value = 4.62

[[record]]
compound = "COc1ccc2c(c1)CCCN2CCC(=O)N1CCN(c2cccc(Cl)c2)CC1"
observable = "pIC50"
numeric_value = 4.73

[[record]]
compound = "COc1ccccc1C(=O)CC1(O)C(=O)Nc2ccc(Cl)cc21 (centres undefined)"
observable = "pIC50"
numeric_value = 6.57


Shift focus to the following entry.
Exam item: So what does the record say about pIC50 for COc1ccc2c(c1)CCCN2CCC(=O)N1CCN(c2ccccc2C)CC1 ?
Marked response: 4.90
